tested on: WNV (NY-99 strain) infection of Vero E6 cells; assay: Dose response assay in CPE based screen (antiviral efficacy); format: cell-based, West Nile virus; settings: West Nile virus, Vero C1008, 96 h, Table 1; CPE based dose response, Vero E6, WNV 0.04 MOI, 96 h
measured_parameter: EC50 (µM)
Give just the numeric value; µM need not be written.

Examples with answers:
O=C(O)c1ccccc1Nc1ccc([N+](=O)[O-])cc1
30.4
C[C@@H]1Cc2ccccc2N1S(=O)(=O)c1cccc(C(=O)N2CCN(c3ncccn3)CC2)c1
18.9
COc1cccc2c(=O)n3c(nc12)/C(=C/c1ccc2c(c1)OCO2)CC3
12.2

// sample COc1cc(-c2ccc(Nc3ccccc3C(=O)O)c(OC)c2)ccc1Nc1ccccc1C(=O)O , its EC50 was 41

Values compiled from paper PMC4839297.
